Target: Protein farnesyltransferase (Homo sapiens, UniProt P49354+P49356)
Assay: Inhibition of human recombinant farnesyltransferase using farnesylpyrophosphate and dansyl-GCVLS as substrate measured for 15 mins by fluorescence assay
pIC50: −log10 of the molar value.
Could you label it y if measured pIC50 is 6 or higher, and n otherwise?

These recorded examples may help you get a feel for the data.
smiles-entry	cat
COc1cc(/C=C/C(=O)c2cc(C(=O)O)c3c(C)cc(C)cn23)cc(OC)c1OC	n
CCOC(=O)c1cc(C(=O)/C=C/c2ccc3c(c2)Sc2ccccc2N3C)n2c(C)cccc12	y
CCOC(=O)c1cc(C(=O)/C=C/c2ccc3c(c2)Sc2ccccc2N3C)n2ccccc12	y

# evaluate next
Task: Could you please find out whether CCOC(=O)c1cc(C(=O)/C=C/c2ccc3c(c2)Sc2ccccc2N3C)n2ccc(C)cc12 has pIC50 that meets 6 or exceeds it?
Output: y

* * *

The following molecules are listed with their measured inhibition values.
Molecular target: Protein farnesyltransferase (Homo sapiens, UniProt P49354+P49356)
Assay: Inhibition of human recombinant farnesyltransferase using farnesylpyrophosphate and dansyl-GCVLS as substrate at 100 uM measured for 15 mins by fluorescence assay
Type: protein-complex assay
Lab note: write values as number then unit, every time.

Below, each entry is followed by its recorded inhibition result.
smiles-entry	study-system	result
CCOC(=O)c1cc(C(=O)/C=C/c2ccc(-c3ccccc3)cc2)n2ccc(OC)cc12	Protein farnesyltransferase (Homo sapiens, UniProt P49354+P49356)	95%
CCOC(=O)c1cc(C(=O)/C=C/c2cc(OC)c(OC)c(OC)c2)n2ccccc12	Protein farnesyltransferase (Homo sapiens, UniProt P49354+P49356)	94%
CCOC(=O)c1cc(C(=O)/C=C/c2ccc(Cl)cc2)n2ccc(OC)cc12	Protein farnesyltransferase (Homo sapiens, UniProt P49354+P49356)	85%
COc1cc(/C=C/C(=O)c2ccc3c(C)cc(C)cn23)cc(OC)c1OC	Protein farnesyltransferase (Homo sapiens, UniProt P49354+P49356)	88%

// recorded inhibition for COc1cc(/C=C/C(=O)c2cc(C(=O)O)c3c(C)cc(C)cn23)cc(OC)c1OC : 88%

For reference, reported inhibition for CSCC[C@H](NC(=O)c1ccc(NC[C@@H](N)CS)cc1-c1ccccc1)C(=O)O stands at 100%

For reference, reported inhibition for CCOC(=O)c1cc(C(=O)/C=C/c2ccc(C#N)cc2)n2ccc(OC)cc12 stands at 95%
